Consider the following sequences; for each one, report its fraction ligated.
# System: F1*sub RNA substrate (template-directed ligation)
# EXPERIMENTAL PROTOCOL: fraction ligated after 30 min (ligated reads / total reads); higher = more ligase activity; sequences stand for … in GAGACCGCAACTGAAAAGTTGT…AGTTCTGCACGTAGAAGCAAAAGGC
# EXPERIMENTAL SETUP: 42 °C

Data request: Give the measured fraction ligated for TAACTTGTCTAAGACACTTTGGATGGGTTGA [3d513]
Data returned: 0.123

Data request: Give the measured fraction ligated for TACACTTGTCGTGACACTTTGGATGGGTTGA [3d659]
Data returned: 0.0318

Data request: Give the measured fraction ligated for TATCACTGCGTAAGACACTTTGGAGGGTTGA [3d1339]
Data returned: 0.0829

Data request: Give the measured fraction ligated for TATCACTTGTGTAAGACATTTGGTGGGTTGA [3d1781]
Data returned: 0.0614

Data request: Give the measured fraction ligated for TACACTTGTCGTAAACACTTTGATGGGTTGA [3d676]
Data returned: 0.0132

Data request: Give the measured fraction ligated for TATCACTTGCGTAAGACACTTTGGAGGGTTG [3d1700]
Data returned: 0.0669

Data request: Give the measured fraction ligated for TTCCTTGTCGTAAGACACTTTGGATGGGTTA [3d315]
Data returned: 0.229

Data request: Give the measured fraction ligated for TATCACTTGCGTAAACACTTTGGATGGGTTG [3d1648]
Data returned: 0.795

Data request: Give the measured fraction ligated for TATCACTTGTCGTAAGAACTTTGATGGGTTGA [2d256]
Data returned: 0.79

Data request: Give the measured fraction ligated for TACACTGTCGTAAGAACTTTGGATGGGTTGA [3d575]
Data returned: 0.162

Data request: Give the measured fraction ligated for TATCACTTGTCTAAGACACTTTATGGGTTGA [3d1885]
Data returned: 0.171

###

# Tested on: F1*sub RNA substrate (template-directed ligation)
# EXPERIMENTAL PROTOCOL: fraction ligated after 30 min (ligated reads / total reads); higher = more ligase activity; sequences stand for … in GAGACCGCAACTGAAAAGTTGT…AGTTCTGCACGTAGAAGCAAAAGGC
# EXPERIMENTAL SETUP: 42 °C
Consider the following sequences; for each one, report its fraction ligated.
Please give only the number in your answer, with no unit.

Data request: Give the measured fraction ligated for TATCACTTGTCTAAGACACTTTGGTGGTTGA [3d1892]
Data returned: 0.104

Data request: Give the measured fraction ligated for TTCATTGTCGTAAGAACTTTGGATGGGTTGA [3d326]
Data returned: 0.149

Data request: Give the measured fraction ligated for TATCACTTGTCGTAAGACACTTTGATGGGTTA [2d287]
Data returned: 0.167

Data request: Give the measured fraction ligated for ATCACTTGTCGAAGACACTTGGATGGGTTGA [3d191]
Data returned: 0.728

Data request: Give the measured fraction ligated for TATCACTTTGTAAGACACTTTGGATGGGTTG [3d1478]
Data returned: 0.82

Data request: Give the measured fraction ligated for TATCCTTGTGTAAGACATTTGGATGGGTTGA [3d1007]
Data returned: 0.796

Data request: Give the measured fraction ligated for TTCACTTGTCGTAAGACACTTGGATGGGTTA [3d489]
Data returned: 0.0495

Data request: Give the measured fraction ligated for TATCACTTTCGAAGACACTTGGATGGGTTGA [3d1499]
Data returned: 0.779

Data request: Give the measured fraction ligated for TATCACTTGTGTAAGACACTTTGGTGGGTTG [3d1802]
Data returned: 0.0157

Data request: Give the measured fraction ligated for TATACTGTCGTAAGACACTTTGGATGGTTGA [3d793]
Data returned: 0.132

Data request: Give the measured fraction ligated for TATCACTTGTCGTAAGACACTTTATGGGTTG [3d2259]
Data returned: 0.0149

Data request: Give the measured fraction ligated for TATCACTGTCGTAAACACTTTGGATGGTTGA [3d1405]
Data returned: 0.166

Data request: Give the measured fraction ligated for TATCACTTGCGTAAGACACTTTGATGGGTTA [3d1692]
Data returned: 0.138

Data request: Give the measured fraction ligated for TATCCTGTCGTAAGAACTTTGGATGGGTTGA [3d958]
Data returned: 0.803

Data request: Give the measured fraction ligated for TATCACTTGTCGTAAGAACTTTGTGGGTTGA [3d2167]
Data returned: 0.0101

Data request: Give the measured fraction ligated for TATCCTGTCGTAAGACACTTTGATGGGTTGA [3d962]
Data returned: 0.754

Data request: Give the measured fraction ligated for TATCACTTGTTAAGACATTTGGATGGGTTGA [3d1710]
Data returned: 0.835

Data request: Give the measured fraction ligated for TACACTTGTCGTAAGCATTTGGATGGGTTGA [3d684]
Data returned: 0.453

Data request: Give the measured fraction ligated for TATCATTGTCGTAAGACACTTTGGTGGGTTA [3d1284]
Data returned: 0.0335

Data request: Give the measured fraction ligated for TATCACTTGTGTAAGACACTTGATGGGTTGA [3d1787]
Data returned: 0.8

Data request: Give the measured fraction ligated for TATCATTGTCGTAAGAATTTGGATGGGTTGA [3d1247]
Data returned: 0.796

Data request: Give the measured fraction ligated for TATCACTTGTCGTAAGCACTTTGGATGGTTA [3d2148]
Data returned: 0.153

Data request: Give the measured fraction ligated for TTCCTTGTCGAAGACACTTTGGATGGGTTGA [3d303]
Data returned: 0.796

Data request: Give the measured fraction ligated for ATCCTTGCGTAAGACACTTTGGATGGGTTGA [3d69]
Data returned: 0.768

Data request: Give the measured fraction ligated for TATCACTGTCTAAGACACTTTGGTGGGTTGA [3d1367]
Data returned: 0.34

Data request: Give the measured fraction ligated for TATCACTTGTCGTGACACTTTGGATGGGTTG [3d1992]
Data returned: 0.826

Data request: Give the measured fraction ligated for ATCACTTGCGAAGACACTTTGGATGGGTTGA [3d142]
Data returned: 0.743

Data request: Give the measured fraction ligated for TACACTTGTCGAAGACACTTGGATGGGTTGA [3d652]
Data returned: 0.109

Data request: Give the measured fraction ligated for TATCCTTGTCTAAGACACTTGGATGGGTTGA [3d1022]
Data returned: 0.764

Data request: Give the measured fraction ligated for ATCACTTGTCGTAAACCTTTGGATGGGTTGA [3d212]
Data returned: 0.758

Data request: Give the measured fraction ligated for TATCACTTGTCGTAAGACACTTTGGATGGTTA [2d296]
Data returned: 0.447

Data request: Give the measured fraction ligated for TTCACTTGTCGTAGACCTTTGGATGGGTTGA [3d433]
Data returned: 0.751

Data request: Give the measured fraction ligated for TATCACTTGTCGTAAAACTTTGATGGGTTGA [3d2061]
Data returned: 0.781

Data request: Give the measured fraction ligated for TATCACTTGTCGAAGACATTTGGATGGGTTG [3d1956]
Data returned: 0.801

Data request: Give the measured fraction ligated for TACCTTGTCGTAAGACACTTTGGATGGGTTG [3d546]
Data returned: 0.719

Data request: Give the measured fraction ligated for TATCACGTCGTAAGACATTTGGATGGGTTGA [3d1303]
Data returned: 0.807

Data request: Give the measured fraction ligated for TATACTTGTCGTAGACACTTTGGTGGGTTGA [3d878]
Data returned: 0.0282

Data request: Give the measured fraction ligated for TATCCTTGTCGTAGACACTTGGATGGGTTGA [3d1048]
Data returned: 0.782

Data request: Give the measured fraction ligated for TATCACTTGTCGTAAGACACTTTGGTGGTTGA [2d290]
Data returned: 0.0232

Data request: Give the measured fraction ligated for TATCATTGTCGTAAGACCTTTGGATGGGTTG [3d1261]
Data returned: 0.778

Data request: Give the measured fraction ligated for TATACTGTCGTAAGCACTTTGGATGGGTTGA [3d785]
Data returned: 0.759
